Test system: OVCAR-4 ovarian
assay_explanation: NCI tumour cell line growth inhibition, 48 h; in the data active = GI50 below about 0.43 µM; inactive = the rest
Classes used: Yes = active, No = inactive

>>> class("CCN(CC)CCOc1ccc(/C(=C(\\C)c2ccc(F)c(OC)c2)c2ccc(Cl)cc2)cc1")
"No"
>>> class("O=C(O)c1cc(O)c2c(c1)C(C1c3cc(C(=O)O)cc(O)c3C(=O)c3c(OC4OC(CO)C(O)C(O)C4O)cccc31)c1cccc(OC3OC(CO)C(O)C(O)C3O)c1C2=O (stereo unspecified)")
"No"
>>> class("O=C(Nc1cccc(Cl)c1Cl)c1cccc(NC2=C(Cl)C(=O)N(Cc3ccccc3)C2=O)c1")
"No"
>>> class("CC(=O)OCC1OC([S-])C(OC(C)=O)C(OC(C)=O)C1OC(C)=O.CC[PH+](CC)CC.CC[PH+](CC)CC.[Au].[Au] (stereo unspecified)")
"No"
>>> class("Cc1sc2nc(NCCc3c[nH]c4ccc(Cl)cc34)[nH]c(=O)c2c1C")
"No"
>>> class("Nc1nc(Nc2ccccc2)c2ncn(Cc3cc4c(cc3Br)OCO4)c2n1")
"Yes"
>>> class("OCCCCC#Cc1ccccc1C#Cc1cccc(O)c1")
"No"
>>> class("Cc1[nH][nH]c(=O)c1C=Nc1ccc(-c2nc3ccccc3[nH]2)cc1")
"No"
>>> class("O=C(CCCN1CC=C(n2c(=O)[nH]c3ccccc32)CC1)c1ccc(F)cc1")
"No"
>>> class("O=C1c2ccn(CCCCNC(CO)(CO)CO)c2C(=O)c2c1c(O)c1ccccc1c2O")
"No"
>>> class("CN1CCc2c(Sc3ccc(C(=O)NO)cc3)c3ccccc3n2C1")
"No"
>>> class("COc1ccc(-c2cc(-c3cccn3C)c(C#N)c(N)n2)cc1OC")
"No"
>>> class("NC1CCCC[C@H]1N.N[C@@H]1CCCC[C@@H]1N.O=C(P(=O)([O-])[O-])P(=O)([O-])[O-].[Pt+4].[Pt+4]")
"No"
>>> class("Cc1c[n+](Cc2ccc3ccccc3c2)cn1Cc1ccc2ccccc2c1")
"No"
>>> class("COc1ccc(CNc2c3ccccc3nc3ccccc23)cc1OC")
"No"
>>> class("COc1cc(/C=C2\\C(=O)Nc3ccc(F)cc32)cc(OC)c1OC")
"No"

---

System: HS 578T breast
assay_explanation: NCI tumour cell line growth inhibition, 48 h
Parameter: GI50. Scope: all listed entries.
reported_property: GI50

>>> reported("O=C(O)c1cc(O)c2c(c1)C(C1c3cc(C(=O)O)cc(O)c3C(=O)c3c(OC4OC(CO)C(O)C(O)C4O)cccc31)c1cccc(OC3OC(CO)C(O)C(O)C3O)c1C2=O (stereo not given)")
"> 100 µM"
>>> reported("NC(=O)C(=CNc1nc(-c2ccc(Cl)c(Cl)c2)cs1)C(N)=O")
"26.9 µM"
>>> reported("O=C(Nc1ccc(Cl)cc1F)c1cc(Br)ccc1O")
"0.521 µM"
>>> reported("O=C(N/N=C\\c1cc(Br)ccc1O)c1ccncc1")
"13.4 µM"
>>> reported("CN(C)Cc1c[nH]c2c1C(=O)c1c(c(O)c3ccccc3c1O)C2=O")
"10.9 µM"

---

Listed below: TGI values for each entry.
Tested on: 786-0 renal
assay_explanation: NCI tumour cell line growth inhibition, 48 h
reported_property: TGI

>>> reported("C#CC(=O)Nc1cccc(Nc2nc3c(c(NCc4ccccc4)n2)CCCC3)c1")
"< 0.01 µM"
>>> reported("COc1ccc2c(c1C)C(=O)C(O)(CC=C(C)C)O2 (configuration not stated)")
"> 100 µM"
>>> reported("O=C(CC(c1ccccc1)N1CCCCC1)c1ccccc1 (configuration not stated)")
"25.9 µM"
>>> reported("COc1cccc(OC)c1/C=C1\\OC(=O)c2cccc(OC)c21")
"> 100 µM"
>>> reported("Cc1[nH][nH]c(=O)c1C=Nc1ccc(-c2nc3ccccc3[nH]2)cc1")
"38.3 µM"
>>> reported("CC(=O)Oc1ccc(Nc2c3ccccc3nc3ccccc23)cc1")
"6.4 µM"
>>> reported("Cc1cn(C2CC(N(O)Cc3ccccc3)C(CO)O2)c(=O)[nH]c1=O (configuration not stated)")
"> 100 µM"
>>> reported("COn1cc(C=O)c2ccccc21")
"> 100 µM"
>>> reported("COc1ccc(C[N+]23C(CC[C@H]2c2ccccc2)CC[C@H]3c2ccccc2)cc1 (some centres not stated)")
"> 100 µM"
>>> reported("O=C(Nc1cccc(Cl)c1)c1cc2ccccc2cc1O")
"> 100 µM"
>>> reported("CC1=C(C(N)=O)C(c2ccncc2)C(C#N)=C2SCC(=O)N12 (configuration not stated)")
"> 100 µM"
>>> reported("Nc1nc(Cl)cc(NCCO)n1")
"> 100 µM"

---

Test system: CCRF-CEM leukemia
assay_explanation: NCI tumour cell line growth inhibition, 48 h
Property: TGI; scope: individual compounds
reported_property: TGI

>>> reported("COn1cc(C=O)c2ccccc21")
"1.34 µM"
>>> reported("N#CC(/C(=N/NC(=O)C(=O)NN)C(=O)NC12CC3CC(CC(C3)C1)C2)c1ccccc1 (stereo unspecified)")
"> 100 µM"
>>> reported("Cc1cn(C2CC(ON3C(=O)c4ccccc4C3=O)C(CO)O2)c(=O)[nH]c1=O (stereo unspecified)")
"> 10 µM"
>>> reported("COc1ccccc1NC(=O)C1=C(C)NC(C)=C(C(=O)Nc2ccccc2OC)C1c1ccc([N+](=O)[O-])cc1")
"> 100 µM"
>>> reported("O=C1C(Cl)C(c2ccccc2)N1n1cnc2ccccc2c1=O (stereo unspecified)")
"> 100 µM"
>>> reported("O=C(/C=C/c1ccccc1)/C=C/c1ccccc1")
"> 100 µM"
>>> reported("COc1ccc(CCNC2=CC(=O)c3ncccc3C2=O)cc1OC")
"39.1 µM"
>>> reported("CN(C)c1ccc2nc3ccc(=O)cc-3sc2c1")
"58.1 µM"
>>> reported("Cc1cccc(NC(=O)/C=C/c2ccc(N(CCC#N)CCC#N)cc2C)c1")
"> 100 µM"
>>> reported("C=CCn1c(=O)n(CC=C)c(=O)n(CC=C)c1=O")
"> 100 µM"
>>> reported("O=c1c(-c2ccccc2)c(SCCCN2CCN(c3cccc(Cl)c3)CC2)n(-c2ccccc2)c(=S)n1-c1ccccc1")
"> 100 µM"

---

Tested on: MOLT-4 leukemia
assay_explanation: NCI tumour cell line growth inhibition, 48 h; in the data active = GI50 below about 0.43 µM; inactive = the rest
Classes used: Y for active, N for inactive

>>> class("C#C[C@]1(O)CC[C@H]2[C@@H]3CC=C4c5sc(Nc6ccccc6)nc5CC[C@]4(C)[C@H]3CC[C@@]21C")
"N"
>>> class("Nc1nc(Nc2ccccc2)c2ncn(Cc3cc4c(cc3Br)OCO4)c2n1")
"Y"
>>> class("CCCCCc1c(C)[nH]c(/C=C2\\N=C(c3ccc[nH]3)C=C2CC)c1C")
"Y"
>>> class("Cc1[nH]n(-c2cccc(Cl)c2)c(=O)c1/C=C1\\C=Nc2ccc(Br)cc21")
"N"
>>> class("O=C1c2ccn(CCCCNC(CO)(CO)CO)c2C(=O)c2c1c(O)c1ccccc1c2O")
"N"
>>> class("Cc1n(Cc2ccc3ccccc3c2)cc[n+]1Cc1ccc2ccccc2c1")
"N"
>>> class("Cc1ccc(Nc2nc(N)c(C(=O)c3ccc(C#N)cc3)s2)cc1")
"N"
>>> class("CCOC(=O)C1=C(C)N(N)C(=S)NC1c1ccc(C)cc1 (stereo not given)")
"N"
>>> class("Nc1ccncc1/C=C1/C(=O)Nc2ccccc21")
"N"
>>> class("CC(=O)Oc1ccccc1C(=O)N=C1[Se]CCCN1C(=O)c1ccccc1OC(C)=O")
"N"

---

Tested on: CAKI-1 renal
assay_explanation: NCI tumour cell line growth inhibition, 48 h
reported_property: TGI

>>> reported("COc1ccccc1NC(=O)C1=C(C)NC(C)=C(C(=O)Nc2ccccc2OC)C1c1ccc([N+](=O)[O-])cc1")
"> 100 µM"
>>> reported("O=C(/C=C/c1ccccc1)/C=C/c1ccccc1")
"> 100 µM"
>>> reported("N#CSc1nc[nH]c1C(N)=O")
"> 81.6 µM"
>>> reported("Cc1cn2c(=O)c3ccccc3nc2s1")
"> 100 µM"
>>> reported("O=C(N/N=C\\c1cc(Br)ccc1O)c1ccncc1")
"> 100 µM"
>>> reported("O=C(Nc1cccc(Cl)c1Cl)c1cccc(NC2=C(Cl)C(=O)N(Cc3ccccc3)C2=O)c1")
"> 100 µM"

---

System: SF-295 CNS
assay_explanation: NCI tumour cell line growth inhibition, 48 h
reported_property: TGI (µM)

>>> reported("COC(COC(=O)N1CCN(C=O)CC1)C1=C(N2CC2)C(=O)C(C)=C(N2CC2)C1=O (stereo not given)")
4.55
>>> reported("Cc1[nH][nH]c(=O)c1C=Nc1ccc(-c2nc3ccccc3[nH]2)cc1")
42.3

Values compiled from PubChem BioAssay (NCI).
